Origin of values: patent US6057314A

# experimentalSystem: human thrombin (Homo sapiens, UniProt P00734)
# testDescription: dTT assay (fibrin clotting assay, human thrombin and bovine fibrinogen)
# Type: biochemical
# experimentalParameters: Table 2; concentration required to double the clotting time; read-out: dTT
pIC50: −log10 of the molar value.

# compound, experimentalSystem, pIC50
data = [
    ("N=C(N)NCCCC(NC(=O)[C@@H]1CC[C@H]2CN(C(=O)c3ccccc3)CC(=O)N21)C(=O)c1nccs1 (stereo partly shown)", "human thrombin (Homo sapiens, UniProt P00734)", 6.86),
]

====

# Test system: washed platelets from rats
# testDescription: Platelet secretion (14C-serotonin, 5-HT, release from washed rat platelets, thrombin stimulated)
# Format: cell-based
# experimentalParameters: Table 1, human thrombin 0.1 IU/mL, read-out: Antiplatelet activity, 5-HT Secretion (IC50)

# compound, IC50
measured = [
    ("N=C(N)NCCCC(NC(=O)[C@@H]1CSC2CC[C@@H](Cc3ccccc3)C(=O)N21)C1(CCC(N)=O)SCCS1 (stereo partly drawn)", "> 100 µM"),
    ("COC(=O)CCC1(C(CCCNC(=N)N)NC(=O)[C@@H]2CSC3CC[C@@H](CC4CCCCC4)C(=O)N32)SCCS1 (stereo partly drawn)", "> 100 µM"),
    ("N=C(N)NCCC[C@H](NC(=O)[C@@H]1CSC2CC[C@@H](CC3CCCCC3)C(=O)N21)C(=O)N1CCCC(C(N)=O)C1 (stereo partly drawn)", "> 100 µM"),
]
